target: Virion infectivity factor (Human immunodeficiency virus type 1 group M subtype B (isolate BH10)) + Virion infectivity factor (Human immunodeficiency virus type 1 group M subtype B (isolate BRU/LAI)) + Virion infectivity factor (Human immunodeficiency virus type 1 group M subtype B (isolate PCV12)) + Virion infectivity factor (Human immunodeficiency virus type 1 group M subtype B (isolate HXB2)) + DNA dC->dU-editing enzyme APOBEC-3G (Homo sapiens) (UniProt P69720+P69721+P69722+P69723+Q9HC16); assay: inhibitors of Vif binding to APOBEC3G peptide, primary screen, biochemical, TR-FRET, GST-Vif 1-94, biotin-A3G peptide, dose response retest (AID 1117319); conditions: active compounds read high;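 also: Vif residues 1-94 fused to GST binding biotinylated APOBEC3G peptide 110-148; 0% = full assay without inhibitor and 100% = GST in place of GST-Vif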
Hit rate of the full screen: of about 260,000 compounds, about 1,500 (0.58%) were called active. Roughly 5% stayed inconclusive and do not appear here. Not all results are given here. Entries with a potency or affinity are not part of this list.
value_type: inhibition (%)
Answer format: numeric, % implied, no suffix.

## Task Which measured inhibition value corresponds to `CCOc1ccc2nc(NC(=O)CSc3nc4c(c(=O)n(C)c(=O)n4C)n3C(C)C)sc2c1` ?
## Result 18.8

## Task Next: `O=C(CCN1CCN(CCO)CC1)Nc1ccc(OCc2ccccc2)cc1`
## Result -0.21

## Task Now the compound `COc1ccc(/C=C2/C(=N)N3C(=NC2=O)Sc2cc(S(C)(=O)=O)ccc23)cc1OC`
## Result -1.27

## Task Repeat for the following compound: `c1ccc(-c2noc(CCC3CCCC3)n2)cc1`
## Result -1.6

## Task What do you get for `O=C(CSc1nccc(=O)[nH]1)NCc1ccc2c(c1)OCO2` ?
## Result 3.96

## Task Same read-out for CCCN1CCN(CC(O)COC(c2ccc(OC)cc2)c2ccc(OC)cc2)CC1 (stereo not given) ?
## Result 3.65

## Task Repeat with CCC(NC(=O)c1ccccc1NC(=O)c1ccc(C)cc1)C(=O)O (stereo not given)
## Result 2.64

## Task What about this compound? Cc1ccc2c(c1)c1c3n2CCN(C(=O)CN2CCN(C)CC2)C3CCC1 (stereo not given)
## Result -1.2

## Task Same lookup for `O=C(c1ccc(CNS(=O)(=O)c2ccccc2)cc1)N1CCN(c2ccccn2)CC1` , please.
## Result 5.22

## Task `CC(C)CN(CC(C)C)C(=O)Nc1cccc([N+](=O)[O-])c1` , same question.
## Result 0.14

---

Provide the reported inhibition of each item.
molecular target: Virion infectivity factor (Human immunodeficiency virus type 1 group M subtype B (isolate BH10)) + Virion infectivity factor (Human immunodeficiency virus type 1 group M subtype B (isolate BRU/LAI)) + Virion infectivity factor (Human immunodeficiency virus type 1 group M subtype B (isolate PCV12)) + Virion infectivity factor (Human immunodeficiency virus type 1 group M subtype B (isolate HXB2)) + DNA dC->dU-editing enzyme APOBEC-3G (Homo sapiens) (UniProt P69720+P69721+P69722+P69723+Q9HC16); test: inhibitors of Vif binding to APOBEC3G peptide, primary screen, biochemical, TR-FRET, GST-Vif 1-94, biotin-A3G peptide, dose response retest (AID 1117319); settings: active compounds read high;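 also: Vif residues 1-94 fused to GST binding biotinylated APOBEC3G peptide 110-148; 0% = full assay without inhibitor and 100% = GST in place of GST-Vif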
The campaign covered roughly 260,000 compounds. About 1,500 (0.58%) were called active. Not shown: some 5% with an inconclusive outcome. A selection follows. Measured potencies and affinities stand elsewhere.
# unit: % | format: bare number

## Task Dear colleague, I am looking for the recorded inhibition of the following molecule: `CCOC(=O)N1C/C(=C\c2ccccc2)C(=O)/C(=C/c2ccccc2)C1`
## Result 1.34

## Task Entry `Cc1ccc(S(=O)(=O)N(C(=O)c2ccncc2)c2ccc3oc4c(c3c2)CCCC4)cc1[N+](=O)[O-]` please
## Result -4.21

## Task Consider next the molecule `CCOc1cc(N2CCOCC2)c(OCC)cc1NC(=O)COc1ccc2ccc(=O)oc2c1` in the same way.
## Result -0.33

## Task Do the same for `O=[N+]([O-])c1ccc2nc(SCc3ccccc3Cl)sc2c1` please
## Result 2.57

## Task Further, for `CC(C)n1cnc2c(=S)nc[nH]c21` ?
## Result 14.2
